# System: βARR1 E134A (Rattus norvegicus, UniProt P29066, E134A)
# Construct: βARR1 or βARR2 construct, with their C terminus truncated (at amino acid 393 or 394, respectively); GST (pGEX4T1) (N, cleaved yes)
# Sequence (P29066 1-393 E134A): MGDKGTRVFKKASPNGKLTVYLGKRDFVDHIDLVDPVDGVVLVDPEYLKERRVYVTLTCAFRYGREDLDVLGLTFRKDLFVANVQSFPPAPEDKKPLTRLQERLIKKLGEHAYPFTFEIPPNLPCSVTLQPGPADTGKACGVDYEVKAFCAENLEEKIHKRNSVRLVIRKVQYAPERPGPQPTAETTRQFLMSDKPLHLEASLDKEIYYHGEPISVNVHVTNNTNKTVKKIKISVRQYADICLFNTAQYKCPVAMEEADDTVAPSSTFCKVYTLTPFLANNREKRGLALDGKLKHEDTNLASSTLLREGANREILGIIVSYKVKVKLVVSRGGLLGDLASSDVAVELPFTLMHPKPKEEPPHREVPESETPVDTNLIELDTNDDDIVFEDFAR
# Experiment notes: ITC binding to βARR1 mutant E134A
# Assay context: 25 °C
pKd: −log10 of the molar value.

| Structure notation | pKd |
| --- | --- |
| C=C1C(=O)[C@]23[C@H](O)[C@H]1CC[C@H]2[C@@]12CO[C@]3(O)[C@@H](O)[C@@H]1C(C)(C)CC[C@@H]2O | 5.66 |

----------
# System: βARR1 P133A (Rattus norvegicus, UniProt P29066, P133A)
# Construct: βARR1 or βARR2 construct, with their C terminus truncated (at amino acid 393 or 394, respectively); GST (pGEX4T1) (N, cleaved yes)
# Sequence (P29066 1-393 P133A): as the sequence (P29066 1-393 E134A) above, with P133A, A134E counted along it
# Experiment notes: ITC binding to βARR1 mutant P133A
# Assay context: 25 °C
# Procedure: The expression and purification of β-arrestins have been described previously[44],[62]–[64]. […] Eluted fractions were analysed by SDS–PAGE, pooled, concentrated using 30 kDa MWCO Amicon Ultra-15 Centrifugal Filter devices, flash-frozen in liquid nitrogen, and stored in aliquots at −80 °C. […] Protein concentrations for each protein were determined by ultraviolet absorption at 280 nm and extinction coefficients estimated using the ExPASy ProtParam tool[67]. […]
pKd: −log10 of the molar value.

| Structure notation | System | pKd |
| --- | --- | --- |
| C=C1C(=O)[C@]23[C@H](O)[C@H]1CC[C@H]2[C@@]12CO[C@]3(O)[C@@H](O)[C@@H]1C(C)(C)CC[C@@H]2O | βARR1 P133A (Rattus norvegicus, UniProt P29066, P133A) | 6.00 |
